Reference source for all entries: BindingDB's records for doi:10.1021/jm00008a007

Molecular target: UniProt P31389
Sequence (P31389 whole entry): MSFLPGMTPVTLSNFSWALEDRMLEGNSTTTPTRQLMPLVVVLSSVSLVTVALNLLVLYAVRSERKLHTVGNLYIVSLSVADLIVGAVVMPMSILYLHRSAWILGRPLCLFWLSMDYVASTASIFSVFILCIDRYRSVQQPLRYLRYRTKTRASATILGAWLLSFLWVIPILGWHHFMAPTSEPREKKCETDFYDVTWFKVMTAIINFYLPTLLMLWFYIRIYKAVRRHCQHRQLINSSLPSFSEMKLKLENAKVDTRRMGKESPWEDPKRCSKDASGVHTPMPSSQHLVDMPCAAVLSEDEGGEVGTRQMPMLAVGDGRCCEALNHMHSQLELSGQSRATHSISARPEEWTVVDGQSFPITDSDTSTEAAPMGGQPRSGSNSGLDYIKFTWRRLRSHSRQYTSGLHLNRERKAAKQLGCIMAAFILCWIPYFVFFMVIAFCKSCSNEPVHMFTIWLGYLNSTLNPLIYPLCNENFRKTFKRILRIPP
Experiment: H1-Histamine receptor agonism on Guinea pig aorta was evaluated (SEM 0.03-0.18)
I'd appreciate it if you could supply EC50 values for the items below.
Quote the value and follow it with the unit of measurement.

Need EC50, item NCCc1nccs1 [2-(2-aminoethyl)thiazole]
6.76 µM

Need EC50, item NCCc1c[nH]c(Cc2cccc(Cl)c2)n1
288 µM

Need EC50, item NCCc1c[nH]c(Cc2ccccc2Cl)n1
575 µM

Need EC50, item NCCc1c[nH]c(-c2ccsc2)n1
6.16 µM

Need EC50, item NCCc1cnc(-c2cccc(C(F)(F)F)c2)[nH]1
1.28 µM

Need EC50, item NCCc1c[nH]c(-c2ccc[nH]2)n1
10.2 µM

Need EC50, item NCCc1c[nH]c(-c2cccc(I)c2)n1
2.57 µM

Need EC50, item NCCc1c[nH]c(Cc2cccs2)n1
147 µM

Need EC50, item NCCc1c[nH]c(-c2ccco2)n1
5.37 µM

Need EC50, item NCCc1c[nH]c(-c2ccccc2)n1
6.3 µM

Need EC50, item NCCc1c[nH]c(-c2csc(Br)c2)n1
11.4 µM

Need EC50, item NCCc1c[nH]c(Cc2ccsc2)n1
128 µM

Need EC50, item NCCc1c[nH]c(-c2cccs2)n1
9.99 µM
